Molecular target: β-amyloid1-42, P05067
Assay: cell-based or functional assay
quantity_measured: Inh ACh rel IC50 (µM)
# unit: µM | format: bare number

Specify reported Inh ACh rel IC50 for the binder shown: Ac-SERFYECCKAP-NH2 (cysteine pairing not given here)
0.426

Consider the binder Ac-IPGKRSERFYECCKEPYPDV-NH2 (cysteine pairing not given here) and give its recorded Inh ACh rel IC50.
0.626
